Source of measurements: the domain aggregation screens of Martell et al. (2025)

- test: soluble fraction after stress (log2 fold change); higher = more stays soluble; pooled small domains, quantitative proteomics;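 note: 20 min heating vs room temperature control held 20 min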
- measurement context: stress: 75 degC
Mark Not satisfied for soluble fraction (log2) values under -0.9, and Satisfied for everything at or above.

Some entries whose results are on file:
HMFELDELDLVILKNLANGLSKKQIRVKLKKMDLRPNSESAIDKRVSKLFDEFGAKNSTELVAKLIREGL Not satisfied
HMSNGEWQQGSDGRWWYKFSDGTYPKNKVETIGGKKYGFDSEGWMLANTTKEFSGTTYSFGADGVATS Satisfied
HMDFDVELTSAGTAKVKVIKAVREATGLGLKEAKDLVDNAPSIVKEGLDEAAANDLKAALEETGASVTL Satisfied
HMKGERHNKILELIQQHAIDRQEDLLRYLKEAGFQVTQATVSRDIRELHLVKVAAGGGQYRYVSAAAAS Not satisfied

Qu. Hi, just wondering whether HMNMENIADKIGKIYESLPEDLKLMIKYRDIDDLTYDEIAVKADLPVGTVRSRLHRAREQLLKELEKN shows soluble fraction (log2) of -0.9 or higher.
Ans. Satisfied

Qu. Is it the case that HMGTYSKQDLLQLIGRYPDGIGKREINLAFSKGTKIRNLLNIELNELLNERLITLSQGGLYIKP has soluble fraction (log2) reaching or exceeding -0.9?
Ans. Not satisfied

Qu. In plain terms: is recorded soluble fraction (log2) at least -0.9 for HMTAQLAAQERTHALDMFMGGYKFSSKPAENGVRAEFEKKNFTLEDGKFLGGDEFMKSLMENDDYKGAFV ?
Ans. Satisfied

Qu. Check the entry HMSDTGQELHDALNMARRTLTILEEQAAGYTALTIPARLVLELEEKRKDVVRLETQIRSAATGTPG : does soluble fraction (log2) equal or exceed -0.9?
Ans. Satisfied

Qu. Does the reported soluble fraction (log2) for HMATPRLAIVPQSAAGRRLDAVLAELFPEYSRSRLSAWIKTGDVMVDGAAPRGRDPVRGGEEITLTAVQ fall at or above the -0.9 mark?
Ans. Satisfied

Qu. Determine whether measured soluble fraction (log2) meets or exceeds -0.9 for HMIKLTVRQQEILDLIARSIDQTGFPPTRAEIAAELGFKSVNAAEEHLQALARKGVIEMVPGISRGIRLVQ
Ans. Not satisfied

* * *

- test: soluble fraction after stress (log2 fold change); higher = more stays soluble; pooled small domains, quantitative proteomics
- measurement context: stress: 75 degC
Recorded soluble fraction (log2) for the following sequences
Give only the figure.

Qu. Name the recorded soluble fraction (log2) of the item HMQGQADFTQGIANFTQYPVGSRITVFTLEGRRVAVVEIGKDGTAQLDMRNKPAGVYIVNTGKQSFKWLK in your answer.
Ans. -2.65

Qu. Return soluble fraction (log2) for the following sequence: HMSGEVLTAVVPETASGERLDKVLPQIFPPYSRSQLQTWLKEGRVTLDREIPAARLAVIGGETLRLEVPSL
Ans. -0.112

Qu. Please report the measured soluble fraction (log2) for HMRSIVETLTDRELEIFQLIGNGFSTGEIARRLNLSPHTIETHRKNIKDKLGLSSGSELNKQAIQWVLSS
Ans. 0.244

Qu. For the sequence HMTKAGVDAWTRGDYAAAVKEWQAQAAKGDADAIFNLGQAFKLGKGVPQDLIKAEQLFGQAAA , report soluble fraction (log2).
Ans. 0.246

* * *

- test: soluble fraction after stress (log2 fold change); higher = more stays soluble; pooled small domains, quantitative proteomics
- measurement context: stress: 75 degC
Overview of reported soluble fraction (log2) across a group of sequences:
Note: the reply should be a number with no unit written.

Before answering, review these 3 worked examples.
HMPAWKINQELQATVIATKANQTRLRIEGQTFETQTAIALKPGQSLLIKVVSLEPQISFALI -2.45
HMQVTGLTAENAHRVTMIREKGTDHPPVPFHFRKEHHGTGNYVHLYGNPEDRNELHSRDFKDWEAVAFK 0.211
HMHQALLEQSAEHAQQVKAYELLLTAERALDEENTEAFLSAMKSLKPLAENLDAKGKALYQELLPFVTEA 0.485

Okay, next one:
Qu. Answer with reported soluble fraction (log2) of HMPELPPHELLRALMVEHDIKQSELPEVGPQPVVSDVLAGKRALNLRQVAALAARFHVPMEVFT
Ans. -0.161

* * *

- test: soluble fraction after stress (log2 fold change); higher = more stays soluble; pooled small domains, quantitative proteomics
- measurement context: stress: 75 degC
Quick rule for you: soluble fraction (log2) at -0.3 or higher means satisfied, lower means not satisfied.

Recorded results for 3 sequences are shown here.
HMSKPVFQTHSVRSADSATVFDVLQTLLAGTPDARIAIDPKTNAIVAWARPETQEVIAKSIMEMEG satisfied
HMADQIIEGILGKEGGYVNNPNDKGGPTRWGITQTTARAYGYSGDMKALPRDTAKAIYLSQYWT satisfied
HMDLATQHAAKVNAAILAARRFEREGSWRQVAAKYSEALQLMPGNEQASRGYQQAMAMLDERD satisfied

Qu. Determine whether this sequence has soluble fraction (log2) no lower than -0.3: HMKSSLAKNLETLMQERQISQTRLSKISGVSQSYIFKILNDQIKKPSLDTLEKLATALDSTVAQLNH
Ans. not satisfied

Qu. Hi, just wondering whether HMQASISVDEAKSIALNYAKFTADQVVYTKSELDYDDGRAEYEIEFYAGGKEYSFTIDAVSGTVLEMEI shows soluble fraction (log2) of -0.3 or higher.
Ans. not satisfied

Qu. For this sequence, is measured soluble fraction (log2) -0.3 or higher? HMSEQTLEDVRRLIEHLPESQKEVVKMRYYQDLSFKEIADLKGISINTALGRMHYAINNMRKMAKEYGL
Ans. not satisfied

Qu. For this sequence, is measured soluble fraction (log2) -0.3 or higher? HMASALDVALNDFAEMRKKMRKPLTDRALALTLSELEKLAPGNDEKKIAILNQSIQRGWQGVFPLK
Ans. not satisfied

* * *

- test: soluble fraction after stress (log2 fold change); higher = more stays soluble; pooled small domains, quantitative proteomics
- measurement context: stress: 75 degC
Some sequences, each annotated with its measured soluble fraction (log2).
// return just the number, without any unit appended

Recorded results for 3 sequences are shown here.
HMTFPAILRELLEKHPQTGKRTTLKELGEAVGTRQQSISLYRNGDTQPSPDILVRIAAFFGVSVDYLL -0.499
HMSSHNIALDQDVVVTQLKGKVYLVAADGSQKQLAEGDILPKDAVLITPEGASFKGGNQTFTLS 0.103
HMDVPNLVGEEIKDVRRTLRHFQLEVIGEGSKIVSQVPKHGQRLPENTTIRVYLN -0.0339

Qu. Identify measured soluble fraction (log2) corresponding to HMLTGDVDRYKDFFIALEKTSPVPIGFEKIIGGAHGYYHLEDKRIAIDEGMSELQTLKTAIHEIAHAKLHD
Ans. -0.312

* * *

- test: soluble fraction after stress (log2 fold change); higher = more stays soluble; pooled small domains, quantitative proteomics
- measurement context: stress: 75 degC
observed property: soluble fraction (log2)
Quick one: just the number, no unit, thanks!

Reference set, count: 7
HMKNTFGLTEREMEVLALIVDGLSNPEIAEKLFITRATAKAHVHSILQKLYVDDRTQAAVTAMREGL -2.21
HMFIEPPSLEELERRLRGRGTETDDVVDMRMRTALVELSQKMEYDYRLVNDDLDEATRQLVAYVNEIAEQ -0.0555
HMGGKWSMPIIYILSKGKMRFKELERSVEGINTRMLVKELKNMEANGIVTREVFPTVPPTVEYALT -0.968
HMIGIEALAGEIDRVRQVLTGGGGLSDVQLFSQLKALNEIKAALGASPDPRAPELVQRVDQLLEAAFRS 0.395
HMLSEKELLELLNRAKSNYNGITKKGIEAIALKYQGYSNVEIANLYHVKANHISAWISRARSRLKADY 0.07
HMSRQAPIGHRIRGRRKDIGMTQNALAKAAGISPSYLNLIEHNRRSIGGGLLMRIAAILDIHPHTL -2.87
HMPSGRIRWFDAKKGYGFIAGDDGKDVFLPQTALPQGVRNPRKGAKVEYSVIEGNRGQVAMGVTMV -0.331

Now for the sequence whose soluble fraction (log2) we want.
Qu. Query soluble fraction (log2) for HMQNYLEFIGNELKALTSIPSPSGYTKDVAAYLMKTLSDMGYEPQLSNKGNVFVTIGGEGNPLVLAAHVD
Ans. 0.0285

* * *

- test: soluble fraction after stress (log2 fold change); higher = more stays soluble; pooled small domains, quantitative proteomics
- measurement context: stress: 75 degC
observed property: soluble fraction (log2)

Previously resolved entries follow.
HMNIGIVSLAAVPMRKEPSDRAEMVNQILFGETFDVLEEQEKWTLVQLHHDAYQGWIDRKQWDYASGIAD -1.33
HMGALTGQERRAEIMNILRQSTMPLSGAALGKQLGVSRQVVVQDIALLRQSGEEIYATNRGYVTG -0.417
HMHDAKTQLQEEAARRGLPAPVYTRIGQEGPDHAPRFRVRADVGPHQAEAVAGSLKLAQAEAARAILRQMP 0.132
HMSVGDLPPEAREIWKLLDGRELSLDLLAEETGRETGALLSTLMMLEMKLLVEHGSDMVYRRIPRR -2.85

Qu. Identify measured soluble fraction (log2) associated with HMLELTVSDKMARLMAWRNRRRVNLSDQELHRIAAAPKQSPESILKMLPGFLQDSVPEIWAELTGGRP
Ans. -1.24

Qu. For the sequence HMSENEVQAKVKEIVDRYAGDKSALIAILQDVQDEYRYLPKEALVSIQQQMNIPLSRVYEVATFYDAFS , give its reported soluble fraction (log2).
Ans. -0.556

Qu. Give a short answer stating reported soluble fraction (log2) for HMNFTETENRIYEEILKNVKQHKKKTVVQIAEKVDVAPSYVIKVAKKLGYSGLNEMWYSLSGIY .
Ans. -0.916

Qu. Look up and report measured soluble fraction (log2) for this entry: HMEELIIQEELANKRLDIAISLLFPELTRAHAQKLIKEGSVLVDGKPRKASYPLTAGKRLSVTLPEPE
Ans. -0.172
